Just for reference, patent US20230117470A1 is where these values come from.

Would you kindly list IC50 for each of these compounds?
Target: human TLR9 (Homo sapiens)
Sequence (Q9NR96 26-1032): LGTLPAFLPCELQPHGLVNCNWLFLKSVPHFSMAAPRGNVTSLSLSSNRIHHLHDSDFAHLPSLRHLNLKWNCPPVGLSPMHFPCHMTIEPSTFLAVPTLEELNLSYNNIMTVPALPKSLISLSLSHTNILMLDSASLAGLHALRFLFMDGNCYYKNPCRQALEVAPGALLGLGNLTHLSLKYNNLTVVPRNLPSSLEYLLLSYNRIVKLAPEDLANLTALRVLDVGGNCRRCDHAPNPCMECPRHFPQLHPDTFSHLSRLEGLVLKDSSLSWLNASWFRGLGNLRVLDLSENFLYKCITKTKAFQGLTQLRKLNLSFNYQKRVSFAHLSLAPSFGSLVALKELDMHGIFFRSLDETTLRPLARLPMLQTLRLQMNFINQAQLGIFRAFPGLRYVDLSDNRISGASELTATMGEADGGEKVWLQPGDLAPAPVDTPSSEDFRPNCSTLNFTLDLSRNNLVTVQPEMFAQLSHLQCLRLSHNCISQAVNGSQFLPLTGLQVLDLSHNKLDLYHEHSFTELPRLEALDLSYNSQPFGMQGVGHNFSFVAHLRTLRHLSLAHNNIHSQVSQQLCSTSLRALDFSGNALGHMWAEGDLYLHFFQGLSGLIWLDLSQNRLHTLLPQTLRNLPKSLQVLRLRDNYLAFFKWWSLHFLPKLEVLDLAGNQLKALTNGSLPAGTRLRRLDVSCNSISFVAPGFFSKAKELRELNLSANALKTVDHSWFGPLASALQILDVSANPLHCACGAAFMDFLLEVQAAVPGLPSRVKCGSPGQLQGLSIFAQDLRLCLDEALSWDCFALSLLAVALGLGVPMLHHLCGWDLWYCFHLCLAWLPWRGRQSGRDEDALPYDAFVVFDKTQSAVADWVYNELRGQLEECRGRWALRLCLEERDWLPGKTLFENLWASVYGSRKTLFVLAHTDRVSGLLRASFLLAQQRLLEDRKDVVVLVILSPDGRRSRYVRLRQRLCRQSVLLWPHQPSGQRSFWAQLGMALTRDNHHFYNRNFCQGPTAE
Experiment: TLR9 inhibition reporter assay (HEK-Blue cells, SEAP reporter, ODN2006 stimulation)
Details: HEK-Blue cells overexpressing human TLR9, SEAP reporter, ODN2006 5 nM
Numbers only, in µM.

Cc1cc(-c2[nH]nc(C(=O)NC3CCN(CC(C)(C)O)CC3)c2C(C)C)cn2ncnc12
14.8
Cc1cc(-c2[nH]nc(-c3cncc(N)c3)c2C(C)C)cn2ncnc12
5.49
Cc1cc(-c2[nH]nc(-c3ccc4c(c3)CCNC4=O)c2C(C)C)cn2ncnc12
15
Cc1cc(-c2[nH]nc(C(=O)N[C@H]3CC[C@H](NCC4CCOC4)CC3)c2C(C)C)cn2ncnc12 (stereo partly shown)
2.18
Cc1cc(-c2[nH]nc(-c3ccc(C4CCNCC4)nc3)c2C(C)C)cn2ncnc12
5.22

Could you tell me IC50 for each of these compounds? They are listed below.
1. Cc1cc(-c2[nH]nc(C3CCN(C(=O)CCNC(C)C)CC3)c2C(C)C)cn2ncnc12
2. CNC1CCC(NC(=O)c2n[nH]c(-c3cc(C)c4ncnn4c3)c2C(C)C)CC1 (stereo not shown) [Example 129]
3. COc1cc(-c2[nH]nc(C(=O)NC3CCN(C(C)C)CC3)c2C(C)C)cn2ncnc12
4. COc1cc(-c2[nH]nc(C(=O)NCC(C)(C)N3CCOCC3)c2C(C)C)cn2ncnc12
5. COc1cc(-c2[nH]nc(-c3ccc(C4CCN(CC(F)(F)F)CC4)cc3)c2C(C)C)cn2ncnc12
6. Cc1cc(-c2[nH]nc(C(=O)N[C@H]3CC[C@H](NC4CCOCC4)CC3)c2C(C)C)cn2ncnc12

Marked response:
23.8
14.4
2.15
7.21
21.9
3.88

Exam item: Please look up its IC50: Cc1cc(-c2[nH]nc(C(=O)NC3CCN(CCCC(F)(F)F)CC3)c2C(C)C)cn2ncnc12
Marked response: 5.81
